System: HeLa
test.protocol: Cytotoxicity against human HeLa cells after 72 hrs by MTT assay
Format: functional, cell-based
pIC50: −log10 of the molar value.

{"columns": ["chemical.string", "tested.system", "comparison.sign", "pIC50"],
 "data": [
  ["CCOc1ccc(-n2nnnc2-c2cc(OC)c(OC)c(OC)c2)cc1", "HeLa", "=", 9.52],
  ["CCc1ccc(-c2nnnn2-c2cc(OC)c(OC)c(OC)c2)cc1", "HeLa", "=", 7.54],
  ["CCOc1ccc(-c2nnnn2-c2cc(OC)c(OC)c(OC)c2)cc1Cl", "HeLa", "=", 8.59],
  ["CCOc1ccc(-c2nnnn2-c2cc(OC)c(OC)c(OC)c2)cc1", "HeLa", "=", 8.72],
  ["CCCCOc1ccc(-c2nnnn2-c2cc(OC)c(OC)c(OC)c2)cc1", "HeLa", "<", 5.00],
  ["COc1ccc(-c2nnnn2-c2cc(OC)c(OC)c(OC)c2)cc1", "HeLa", "=", 8.59],
  ["COc1cc(-n2nnnc2-c2ccc(C(C)=O)cc2)cc(OC)c1OC", "HeLa", "=", 6.19],
  ["CCCOc1ccc(-c2nnnn2-c2cc(OC)c(OC)c(OC)c2)cc1", "HeLa", "=", 7.95],
  ["COc1ccc(-n2nnnc2-c2cc(OC)c(OC)c(OC)c2)cc1", "HeLa", "=", 6.02],
  ["CCCCCOc1ccc(-c2nnnn2-c2cc(OC)c(OC)c(OC)c2)cc1", "HeLa", "=", 5.19],
  ["COc1cc(-n2nnnc2-c2ccc(C)cc2)cc(OC)c1OC", "HeLa", "=", 6.59],
  ["COc1cc(-n2nnnc2-c2ccccc2)cc(OC)c1OC", "HeLa", "=", 5.39],
  ["COc1ccc(-c2nnnn2-c2cc(OC)c(OC)c(OC)c2)cc1F", "HeLa", "=", 8.55],
  ["COc1ccc(-c2nnnn2-c2cc(OC)c(OC)c(OC)c2)cc1OC", "HeLa", "=", 6.59],
  ["COc1cc(-n2nnnc2-c2cccs2)cc(OC)c1OC", "HeLa", "<", 5.00],
  ["COc1cc(-c2nnnn2-c2cc(OC)c(OC)c(OC)c2)cc(OC)c1OC", "HeLa", "<", 5.00],
  ["COc1ccc(-c2nnnn2-c2cc(OC)c(OC)c(OC)c2)cc1C", "HeLa", "=", 8.68],
  ["COc1ccc(-c2nnnn2-c2cc(OC)c(OC)c(OC)c2)cc1Cl", "HeLa", "=", 8.64]
]}
